Attribution: patent US20170247475A1

Please go through the items and note down their Binding level (RU).
SUBJECT_OF_TEST: T1, recombinant human VEGF165 (human, UniProt P15692-4 27-191)
T1 construct: also called hVEGF165; rhVEGF165
PROTOCOL_TEXT: Biacore, periplasmic extract on hVEGF165 chip
The figure you give is taken to be in RU; do not add the unit.

Reported Binding level (RU) of VEGFBII22B06 (VHH, periplasmic extract) VHH: EVQLVESGGGLVQPGDSLKLSCAASGRTFSSYSMGWFRQAQGKEREFVVAISSSGGYIYDSVSLEGRFTISRDNTKNTVYLQTPSLKPEDTAVYYCAASRAYGSSRLRLADTYDYWGQGTQVTVSS : 168

Noted for VEGFBII30C09 (VHH, periplasmic extract; also called VEGFBII30009) VHH: EVQLVESGGGLVQPGDSLKLSCIASGRTSSSYSMGWFRQAQGQEREFVVAISSGGYIYDSVSLQGRFTISRDNTKNTVYLQTPSLKPEDTAVYYCAASRAYGSSRLRLADTYDYWGQGTQVTVSS : its Binding level (RU) reads 264

Entry under test: VEGFBII23A08 (VHH, periplasmic extract) VHH: EVQLVESGGGLVQTGDSLRLSCVASGRTFSSYSMGWFRQAQGKEREFVVAISNGGYKYDSVSLEGRFTISRDNTKNTVYLQINSLKPEDTAVYYCAASRAYGSSRLRLADTYDYWGQGTQVTVSS . Its Binding level (RU) was 502

Summary for this binder, VEGFBII22B07 (VHH, periplasmic extract) VHH: EVQLVESGGGLVQAGDSLRLSCAASGRTFSSYSMGWFRQAQGKEREFVVAISSSGNYKYDSVSLEGRFTISRDNTKNTVYLQINSLKPEDTAVYYCAASRAYGSSRLRLGDTYDYWGQGTQVTVSS : Binding level (RU) is 328

The reported Binding level (RU) of the binder VEGFBII62A09 (VHH, periplasmic extract) VHH: EVQLVESGGDLVQPGDSLKLSCAASGRTFSSYSMGWFRQAQGKEREFVVAISSSGGYIYDSVSLEGRFTISRDNTKNTVYLQTPSLKPEDTAVYYCAASRAYGSSRLRLADTYDYWGQGTQVTVSS was 84

For this binder ( VEGFBII23E05 (VHH, periplasmic extract) VHH: EVQLVESEGGLVQPGDSLKLSCVASGRTSSSYSMGWFRQAQGKEREFVVAISSGGYIYDSVSLQGRFTISRDNTKNTVYLQTPSLKPEDTAVYYCAASRAYGSSRLRLADTYDYWGQGTQVTVSS ), measured Binding level (RU) is 275

Binding level (RU) measured on VEGFBII42D05 (VHH, periplasmic extract) VHH: EVQLVESGGGLVQPGDSLKLSCAFSGRTFSSYSMGWFRQAQGKEREFVVAISSSGGYIYDSVSLEGRFTISRDNTKNTVYLQTPSLKPEDTAVYYCAASRAYGSSRLRLADTYDYWGQGTQVTVSS = 77

Form: binder = VEGFBII62D10 (VHH, periplasmic extract) VHH: EVQLVESEGGLVQAGDSLRLSCAASGRTFSSYSMGWFRQAQGKEREFVVAISSSGNYKYDSVSLEGRFTISRDNTKNTVYLQINSLKPEDTAVYYCAASRAYGSSRLRLGDTYDYWGQGTQVTVSS ; Binding level (RU) = 94

Binding level (RU) reading for VEGFBII24C04 (VHH, also called VEGFBII24C4) VHH: EVQLVESGGGLVQPGDSLKLSCVASGRTSSSYSMGWFRQAQGKEREFVVAISSGGYIYDSVSLQGRFTISRDNTKNTVYLQTPSLKPEDTAVYYCAASRAYGSSRLRLADTYDYWGQGTQVTVSS : 456
